Please provide measured IC50 for the entries that follow.
system: HL-60; assay: Antineoplastic activity against human HL60 cells after 72 hrs by MTT assay; type: functional, cell-based; conditions: HL-60, 72 h
Numbers only, in µM.

Past entries and their recorded results:
COc1cc(C=O)cc2c1O[C@@H]1C3=C(OC[C@H]21)C(=O)c1ccccc1C3=O (racemic) ... 3
Cc1ccc(S(=O)(=O)N2c3ccccc3[C@H]3CCc4ccccc4[C@H]32)cc1 ... 1
COc1cccc2c1C(=O)c1c(O)c3c(c(O)c1C2=O)C[C@@](O)(C(=O)CO)C[C@@H]3O[C@H]1C[C@H](N)[C@H](O)[C@H](C)O1 [DOXORUBICIN] ... 0.04
COc1c2c(c(OC)c3ccccc13)[C@H]1Oc3ccccc3[C@H]1CO2 (racemic) ... 17.4
Cc1ccc(S(=O)(=O)N2c3ccccc3[C@H]3COc4ccccc4[C@H]32)cc1 ... 6.1
COC(=O)c1ccc2c(c1)[C@H]1COC3=C(C(=O)c4ccccc4C3=O)[C@H]1O2 (racemic) ... 4.1

As a next step, examine the compound that follows.
Form entry - test system: HL-60; read-out: IC50; compound: O=C1C2=C(C(=O)c3ccccc31)[C@H]1Oc3ccccc3[C@H]1CO2 (racemic) [PTEROCARPANQUINONE]
1.3
